# Test system: larvae of blowfly, Lucilia sericata
# test protocol: whole plant or invertebrate
# run parameters: dose rate of 20 ppm; Lucilia sericata larvae on treated filter paper with bovine serum; assessed at 24 h
For each record, write down the corresponding % Mortality 24 h.
I only need the number, in %, no unit after it.

% Mortality 24 h for O=C1OC(=Cc2ccc(F)cc2)C(O)=C1c1cccc(C(F)(F)F)c1 (mixture of isomers) ?
100

% Mortality 24 h for N#Cc1ccc(C2=C(O)C(=Cc3ccc(C(F)(F)F)cc3)OC2=O)cc1 (mixture of isomers) ?
100

% Mortality 24 h for O=C1OC(=Cc2ccc(Cl)cc2)C(O)=C1c1ccc(-c2ccc(Cl)cc2)cc1 (mixture of isomers) ?
0

% Mortality 24 h for N#Cc1ccc(-c2ccc(C=C3OC(=O)C(c4cccc(Cl)c4)=C3O)cc2)cc1 (mixture of isomers) ?
0

% Mortality 24 h for "N#Cc1ccc(C2=C(O)/C(=C/c3ccc(-c4ccc(C#N)cc4)cc3)OC2=O)cc1" ?
0

% Mortality 24 h for N#Cc1cccc(C2=C(O)C(=Cc3ccc(Cl)cc3)OC2=O)c1 (mixture of isomers) ?
0

% Mortality 24 h for O=C1OC(=Cc2ccc(Cl)cc2)C(O)=C1c1ccc(F)cc1 (mixture of isomers) ?
0

% Mortality 24 h for N#Cc1ccc(C=C2OC(=O)C(c3cccc(C#N)c3)=C2O)cc1 (mixture of isomers) ?
0

% Mortality 24 h for O=C1OC(=Cc2cccc(Cl)c2)C(O)=C1c1ccc(Cl)cc1 (mixture of isomers) ?
0
